Reference source for all entries: paper PMC10786891

# EXPERIMENTAL TARGET: T1, EsCas13d, nuclease-dead (Eubacterium siraeum, UniProt B0MS50, R295A;H300A;R849A;H854A)
# T1 sequence: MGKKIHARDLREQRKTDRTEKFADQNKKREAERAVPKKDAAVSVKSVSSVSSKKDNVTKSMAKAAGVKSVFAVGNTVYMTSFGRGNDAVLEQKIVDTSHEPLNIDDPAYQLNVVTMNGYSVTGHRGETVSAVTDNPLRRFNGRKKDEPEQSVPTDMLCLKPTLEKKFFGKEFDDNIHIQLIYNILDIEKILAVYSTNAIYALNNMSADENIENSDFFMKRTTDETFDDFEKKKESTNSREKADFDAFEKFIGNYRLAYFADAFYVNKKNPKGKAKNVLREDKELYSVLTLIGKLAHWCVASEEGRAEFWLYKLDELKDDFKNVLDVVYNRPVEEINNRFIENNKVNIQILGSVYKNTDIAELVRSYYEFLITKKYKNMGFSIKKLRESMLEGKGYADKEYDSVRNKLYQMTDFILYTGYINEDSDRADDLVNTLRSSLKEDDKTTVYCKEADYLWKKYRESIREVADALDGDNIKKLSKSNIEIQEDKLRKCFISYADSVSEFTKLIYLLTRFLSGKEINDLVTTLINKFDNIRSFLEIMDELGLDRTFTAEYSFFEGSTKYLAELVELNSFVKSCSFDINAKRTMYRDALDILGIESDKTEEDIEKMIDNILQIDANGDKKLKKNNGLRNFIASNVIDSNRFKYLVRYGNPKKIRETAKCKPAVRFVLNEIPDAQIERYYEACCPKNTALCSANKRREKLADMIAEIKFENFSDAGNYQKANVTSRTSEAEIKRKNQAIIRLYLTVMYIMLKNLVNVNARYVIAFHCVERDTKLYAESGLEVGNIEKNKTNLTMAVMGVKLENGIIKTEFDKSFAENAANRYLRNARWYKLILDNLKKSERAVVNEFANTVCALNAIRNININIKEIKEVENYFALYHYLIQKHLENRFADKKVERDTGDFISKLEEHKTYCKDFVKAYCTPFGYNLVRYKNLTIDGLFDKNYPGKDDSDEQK
# ASSAY SUMMARY: crRNA (strand 1, pre-loaded); Mg2+; 40 mM Tris-HCl pH 7.5, 150 mM NaCl, 6 mM MgCl2, 1 mM DTT, 0.1% Tween-20, 0.2 mg/ml BSA; 25 C; 10 min per concentration, then washed
# EXPERIMENTAL PARAMETERS: tags: His6-TwinStrep-SUMO cleaved; N-terminal SNAP kept (SNAP-Surface 488); label: 3' end held by stalled T7 RNA polymerase
Entries and their Kd
// units = nM; emit number, no label

Record excerpt, results attached:
BINDER	UNIT ANNOTATION	Kd
target 3 insC 3' of 5 (mixed) RNA 1: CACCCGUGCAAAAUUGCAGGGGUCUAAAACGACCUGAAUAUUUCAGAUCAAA RNA 2: GGGAAUGGAUCCACAUCUACGAAUUCGUUUUUGAUCUGAAAUAUUCACGGUCUGCAGAUCGGAAGAGCACACGU	nM	19.2
target 2 MT 5'PFS UGU 3'PFS CUA (mixed) RNA 1: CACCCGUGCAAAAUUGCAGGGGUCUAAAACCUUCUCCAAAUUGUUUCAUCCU RNA 2: GGGAAUGGAUCCACAUCUACGAAUUCUGUAGGAUGAAACAAUUUGGAGAAGCUAAGAUCGGAAGAGCACACGU	nM	12.9
target 1 insC 3' of 17,insC 3' of 15 (mixed) RNA 1: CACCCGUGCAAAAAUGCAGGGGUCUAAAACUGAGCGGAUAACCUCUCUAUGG RNA 2: GGGAAUGGAUCCACAUCUACGAAUUCGUACCAUAGCAGCAGGUUAUCCGCUCACCGAGAUCGGAAGAGCACACGU	nM	38

Proceed to the following item.
Qu. # Kd lookup, item target 1 MT 5'PFS GGC 3'PFS AGA (mixed) RNA 1: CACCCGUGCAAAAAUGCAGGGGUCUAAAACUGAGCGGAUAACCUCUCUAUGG RNA 2: GGGAAUGGAUCCACAUCUACGAAUUCGGCCCAUAGAGAGGUUAUCCGCUCAAGAAGAUCGGAAGAGCACACGU
Ans. 22.5
